Test: Therapeutic index(TI) as IC50 of vero cells to that of EC50
Type: cell-based, Cricetulus griseus
Conditions: chinese hamster, read-out: Ti
Value kind: selectivity ratio
Write the number on its own, no unit after it.

Hello, please tell me recorded selectivity ratio for this one: CCCCCCC1(CC2C(=O)OC3OC4(C)CCC5C(C)CCC2C35OO4)C(=O)OC2OC3(C)CCC4C(C)CCC1C24OO3 (stereo unspecified)
5

---

The following molecules are listed with their measured selectivity ratio values.
Test: Therapeutic index (TI) determined as IC50 of vero cells to that of EC50
Assay type: cell-based
Settings: plasmodium falciparum, read-out: TI
Write the number on its own, no unit after it.

>  <Molecule>
C[C@@H]1CCC2[C@H](CCCCCC[C@@H]3C(=O)O[C@@H]4O[C@@]5(C)CC[C@H]6[C@H](C)CCC3[C@@]46OO5)C(=O)O[C@@H]3O[C@]4(C)CC[C@@H]1C23OO4 (stereo partly drawn)

>  <Value kind>
selectivity ratio

>  <Observed measurement>
7.1

$$$$
>  <Molecule>
C[C@@H]1CC[C@H]2[C@H](CCCCc3ccccc3)C(=O)O[C@@H]3O[C@]4(C)CC[C@@H]1[C@]32OO4

>  <Value kind>
selectivity ratio

>  <Observed measurement>
1.3

$$$$
>  <Molecule>
CCCCCC[C@@H]1C(=O)O[C@@H]2O[C@]3(C)CC[C@H]4[C@H](C)CC[C@@H]1[C@@]24OO3

>  <Value kind>
selectivity ratio

>  <Observed measurement>
1

$$$$
>  <Molecule>
CCCCCC1(CC2C(=O)OC3OC4(C)CCC5C(C)CCC2C35OO4)C(=O)OC2OC3(C)CCC4C(C)CCC1C24OO3 (stereo not drawn)

>  <Value kind>
selectivity ratio

>  <Observed measurement>
1.6

$$$$
>  <Molecule>
CCCCC[C@@H]1C(=O)O[C@@H]2O[C@]3(C)CC[C@H]4[C@H](C)CC[C@@H]1[C@@]24OO3

>  <Value kind>
selectivity ratio

>  <Observed measurement>
1.6

$$$$

Hello, please tell me recorded selectivity ratio for this one: CC1CCC2C(CCCCCCC3(CC4C(=O)OC5OC6(C)CCC7C(C)CCC4C57OO6)C(=O)OC4OC5(C)CCC6C(C)CCC3C46OO5)C(=O)OC3OC4(C)CCC1C32OO4 (stereo not drawn)
2.8

Hello, please tell me recorded selectivity ratio for this one: C[C@@H]1CC[C@H]2[C@@H](Cc3cccc(F)c3)C(=O)O[C@@H]3O[C@]4(C)CC[C@@H]1[C@]32OO4
6.3

Hello, please tell me recorded selectivity ratio for this one: C[C@@H]1CC[C@H]2C(C[C@]3(C)C(=O)O[C@@H]4O[C@]5(C)CC[C@H]6[C@H](C)CC[C@@H]3[C@@]46OO5)C(=O)O[C@@H]3O[C@]4(C)CC[C@@H]1C32OO4 (stereo partly drawn)
8.9

Hello, please tell me recorded selectivity ratio for this one: C[C@@H]1CC[C@H]2[C@H](Cc3cccc(F)c3)C(=O)O[C@@H]3O[C@]4(C)CC[C@@H]1[C@]32OO4
7.1

Reference source for all entries: ChEMBL document CHEMBL1134326
